TARGET: Glutathione S-transferase omega-1 (Homo sapiens)
ASSAY DETAILS: GSTO1 inhibitor hit confirmation, counter-screen for RBBP9 inhibitor project, biochemical, fluorescence polarization, triplicate (AID 2176);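 note: loss of polarization as inhibitors block binding of rhodamine sulfonate ester activity probe; 0% = GSTO1 with DMSO and 100% = wells lacking GSTO1 enzyme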
RUN CONDITIONS: recombinant GSTO1, probe fluorescence polarization; at 5.96 µM
This is one part of the list. Calls of active or inactive are those of the source.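 Rule for the calls: active = inhibition above the primary screen's cutoff, its mean inhibition plus 3 SD (cut at about 35% in these data); inactive = the rest.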
Entry note: the call must match one of active, inactive

Take a look at these entries with their results.
- COc1ccccc1CCCNC(=O)C1CCC(=O)N(CCN2CCOCC2)C1 (stereo not drawn): inactive
- CC1=CC(C)(C)Nc2ccc(OC(=O)CN3C(=O)C4CCCCC4C3=O)cc21 (stereo not drawn): inactive

Turning now to a further record.
How was `CC(C)CC[n+]1ccn(C2=C([O-])c3ccccc3C(=O)/C2=N\S(=O)(=O)c2ccccc2)c1` classified in this test?
active

====

Listed next: entries and their corresponding inhibition.
TARGET: Steroidogenic factor 1 (Homo sapiens) (UniProt Q13285)
Sequence (Q13285 whole entry, looked up): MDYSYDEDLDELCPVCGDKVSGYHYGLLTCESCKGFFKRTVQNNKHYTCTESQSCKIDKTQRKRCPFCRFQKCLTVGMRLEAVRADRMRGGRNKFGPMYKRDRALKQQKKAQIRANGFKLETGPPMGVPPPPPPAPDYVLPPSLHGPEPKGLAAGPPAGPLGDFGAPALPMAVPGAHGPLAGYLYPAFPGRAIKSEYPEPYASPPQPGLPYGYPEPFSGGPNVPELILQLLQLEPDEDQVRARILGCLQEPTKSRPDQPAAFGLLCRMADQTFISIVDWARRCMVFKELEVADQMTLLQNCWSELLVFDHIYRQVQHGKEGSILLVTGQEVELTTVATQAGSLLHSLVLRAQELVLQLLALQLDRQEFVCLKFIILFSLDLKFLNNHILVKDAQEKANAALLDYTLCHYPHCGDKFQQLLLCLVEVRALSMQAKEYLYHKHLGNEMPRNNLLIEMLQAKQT
ASSAY DETAILS: SF1 (NR5A1) inverse agonists, counter-screen for LRH-1 inverse agonist project, cell-based, luminescence, high throughput (AID 651614);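 note: cells cotransfected with StAR promoter reporter and SF1 expression vector; 0% = vehicle on cells with receptor and 100% = vehicle on cells lacking receptor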
RUN CONDITIONS: cell-based SF1 luciferase reporter, at 3.6 µM, hits give high values
Write it as a number; the unit % goes unstated.

Please review the following examples before continuing.
- Cn1c(=O)n(C)c2cc(NC(=O)CCl)ccc21: 61.5
- O=C(c1ccc([N+](=O)[O-])o1)N1CCN(c2nc3c(Cl)cccc3s2)CC1: 61.3

We now examine a further compound.
Quick check: inhibition of `CCCc1cc(=O)oc2c(C)c(OCC(=O)NC3CC(C)(C)NC(C)(C)C3)ccc12` ?
59

====

Listed here are compounds together with their documented inhibition.
TARGET: Platelet-activating factor acetylhydrolase (Homo sapiens)
ASSAY DETAILS: pPAFAH (PLA2G7) enzyme inhibitors, confirmation, biochemical, fluorescence polarization, human (AID 463230);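 note: 0% = enzyme with DMSO and 100% = wells lacking pPAFAH enzyme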
RUN CONDITIONS: recombinant pPAFAH, FP-Rh probe fluorescence polarization; at 3.39 µM; hits give high values
Some of the results follow.
Numbers only; they are read as %.

// below: answered compounds
* CC(C)c1ccc(NC(=S)NNc2ccc(Cl)c(C(=O)O)c2)cc1 | 11.9
* O=C(N/N=C/c1cccnc1)c1cc2ccccc2cc1O | 5.94
* Nc1ccc2nc3c(=O)[nH]c(=S)[nH]c3nc2c1 | 32.2
* Cc1ccc(N=C2NC(=O)/C(=C/C=C/c3ccco3)S2)cc1C | 31.1
* Cc1ccc(-n2c(C)cc(/C=C(\C#N)C(=O)NCC3CCCO3)c2C)cc1 (stereo unspecified) | 63.7
* CC1CCCCC1NC(=O)COC(=O)Cc1ccc(Cl)cc1 (stereo unspecified) | 22.3
* Oc1cccc(/C=N/Nc2ccc(Cl)nn2)c1O | 29.2
* COC(=O)c1cc(S(=O)(=O)Nc2ccc(C)c(F)c2)c[nH]1 | 24.1
* Cc1ccc(/C=N/NC(=O)c2cc3ccccc3cc2O)o1 | 9.89
* c1ccc(CSc2nnc(-c3ccco3)c(-c3ccco3)n2)cc1 | 33.6

Here's the next entry for you.
Find inhibition (Platelet-activating factor acetylhydrolase (Homo sapiens)) for the entry CC1(OC(=O)C2CCCC2)C(=O)C=C2C=C(c3ccc(C#N)cc3)OC=C2C1=O (stereo unspecified)
53.2

====

ASSAY DETAILS: StAR promoter reporter inhibitors, counter-screen for LRH-1 inverse agonist project, cell-based, luminescence, high throughput (AID 651611)
RUN CONDITIONS: StAR promoter luciferase reporter counterscreen, at 3.6 µM
The source made the active and inactive calls. Rule as the data show it: active = inhibition above about 28%; inactive = the rest.
Field 'call' accepts active, inactive

Worked examples follow.
* Cc1ccc2nc(-c3ccc(NS(C)(=O)=O)cc3)cc(-c3ccccc3)c2c1 | inactive
* CC(C)c1ccc(-c2nc3ccccc3s2)cc1 | active
* COc1cccc2c1C(=O)c1c(O)c3c(c(O)c1C2=O)CC(O)(C(C)=O)CC3OC1CC(N(C)C)C(O)C(C)O1 (configuration not stated) | active
* CCOC(=O)C(C(C)=O)c1c(Br)c(O)c(O)c2c(C(=O)c3ccc(C)cc3)coc12 (configuration not stated) | active

GET /call?item= `O=C(Nc1cccc(NC(=O)c2ccc([N+](=O)[O-])o2)c1)c1ccco1` returns the recorded outcome of this test.
inactive

Assay outcome for `O=C(O)c1ccccc1C(=O)Nc1ccc(Oc2cccc3ccccc23)cc1` : what was it?
active

Lab log entry: COc1cc2c(cc1OC)C(C1C(=O)CC(C)CC1=O)N(C(=O)CCl)CC2 (configuration not stated) — outcome as called in the assay?
inactive

For `CCOc1ccc(CCNC(=O)COC(=O)c2c(C)nn(-c3ccccc3)c2C)cc1OCC` , what call appears in the results of this test?
inactive

FYI, the data here is from PubChem BioAssay.
